Please provide measured pIC50 for the entries that follow.
# Tested on: MCF-7 TX200
# assayText: BrdU-Assay, IC-50 against cancer cell line MCF-7 TX200
# Format: cell-based
# runParameters: Homo sapiens; MCF-7 TX200, BrdU-Assay
Please report pIC50 as the negative decimal logarithm of the molar concentration, giving only the number.

Value wanted: pIC50 (MCF-7 TX200) of entry CC[C@H](C)C(NC(=O)C1CCCCN1C)C(=O)N(C)[C@H](C[C@@H](OC(C)=O)c1nc(C(=O)N[C@@H](Cc2ccccc2)C[C@H](C)CO)cs1)C(C)C (some centres unmarked) [MSRD345]
7.30

Value wanted: pIC50 (MCF-7 TX200) of entry CCCN(C(=O)C(NC(=O)C1CCCCN1C)[C@@H](C)CC)[C@H](C[C@@H](OC(C)=O)c1nc(C(=O)N[C@H](CO)Cc2ccccc2)cs1)C(C)C (some centres unmarked) [MSRD390]
7.61

Value wanted: pIC50 (MCF-7 TX200) of entry CCCN(C(=O)C(NC(=O)C1CCCCN1C)[C@@H](C)CC)[C@H](C[C@@H](OC(C)=O)c1nc(C(=O)N[C@@H](Cc2ccccc2)C[C@H](C)CO)cs1)C(C)C (some centres unmarked) [MSRD334]
7.81

Value wanted: pIC50 (MCF-7 TX200) of entry CCCN(C(=O)C(NC(=O)C1CCCCN1C)[C@@H](C)CC)[C@H](C[C@@H](OCOC)c1nc(C(=O)N[C@@H](Cc2ccccc2)C[C@H](C)CO)cs1)C(C)C (some centres unmarked) [MSRD368]
6.49

Value wanted: pIC50 (MCF-7 TX200) of entry CC[C@H](C)C(NC(=O)C1CCCCN1C)C(=O)N[C@H](C[C@@H](OC(C)=O)c1nc(C(=O)N[C@@H](Cc2ccccc2)C[C@H](C)CO)cs1)C(C)C (some centres unmarked) [SDRD28]
6.43

Data credit: patent US8772244B2
